biological target: chemokine receptor CXCR7 (UniProt P25106 1-362, limits assumed); assay: cell-based or functional assay
Sequence (P25106 whole entry): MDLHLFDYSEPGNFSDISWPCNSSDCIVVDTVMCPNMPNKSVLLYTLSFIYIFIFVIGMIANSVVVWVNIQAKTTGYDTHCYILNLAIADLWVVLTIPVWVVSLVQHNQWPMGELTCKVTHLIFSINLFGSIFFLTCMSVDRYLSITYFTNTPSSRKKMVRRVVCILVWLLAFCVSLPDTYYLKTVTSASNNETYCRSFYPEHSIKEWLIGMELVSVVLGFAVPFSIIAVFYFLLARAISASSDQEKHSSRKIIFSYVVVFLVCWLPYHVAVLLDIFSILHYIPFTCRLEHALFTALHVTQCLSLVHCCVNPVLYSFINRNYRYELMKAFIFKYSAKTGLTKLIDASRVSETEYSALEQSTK
Numbered stars: 1 amine (or outer) side, 2 acyl side, 3 side chain; on linkers, the order of the positions; unused ones are H or OH. Square brackets hold non-standard residues; d marks the D form. Primed or numbered codes have the meaning given here. (4S)Hyp(Bn) = O=C([C@@H]1C[C@H](OCc2ccccc2)CN1[*:1])[*:2]; dPro(cis-4-NH2) = N[C@H]1CN[C@@H](C(=O)O)C1; 2Nal = N[C@@H](Cc1ccc2ccccc2c1)C(=O)O; hArg = N=C(N)NCCCC[C@H](N)C(=O)O; Tic = O=C(O)[C@@H]1Cc2ccccc2CN1; hSer = N[C@@H](CCO)C(=O)O; dPip′ = not defined here; Dab = NCC[C@H](N)C(=O)O; Abu = CC[C@H](N)C(=O)O
Give β-Arrestin EC50 for every item shown.
Numbers only, in nM.

Take a look at these entries with their results.
# binder, β-Arrestin EC50, nM
measured = [
    ("cyclo(I[dR]RW[dP][hSer]) (SMILES CC[C@H](C)[C@@H]1NC(=O)[C@H](CCO)NC(=O)[C@H]2CCCN2C(=O)[C@H](Cc2c[nH]c3ccccc23)NC(=O)[C@H](CCCNC(=N)N)NC(=O)[C@@H](CCCNC(=N)N)NC1=O) [cyclo(-Ile-^DArg-Arg-Trp-^DPro-hSer-)]", 347),
    ("cyclo(I[dR]R[2Nal][dP]T) (SMILES CC[C@H](C)[C@@H]1NC(=O)[C@H]([C@@H](C)O)NC(=O)[C@H]2CCCN2C(=O)[C@H](Cc2ccc3ccccc3c2)NC(=O)[C@H](CCCNC(=N)N)NC(=O)[C@@H](CCCNC(=N)N)NC1=O) [cyclo(-Ile-^DArg-Arg-2Nal-^DPro-Thr-)]", 0.4),
    ("cyclo(W[dF]W[Dab][dPro(cis-4-NH2)][Tic]) (SMILES NCC[C@@H]1NC(=O)[C@H](Cc2c[nH]c3ccccc23)NC(=O)[C@@H](Cc2ccccc2)NC(=O)[C@H](Cc2c[nH]c3ccccc23)NC(=O)[C@@H]2Cc3ccccc3CN2C(=O)[C@H]2C[C@@H](N)CN2C1=O) [cyclo(-Trp-^DPhe-Trp-Dab-^DPro((4R)NH2)-Tic-)]", 13.6),
]

For each entry beneath this line, provide reported β-Arrestin EC50.
1. cyclo(I[dR]RW[dPip′]T) [cyclo(-Ile-^DArg-Arg-Trp-^DPip-Thr-)]
2. cyclo(V[dR]RW[dP]T) (SMILES CC(C)[C@@H]1NC(=O)[C@H]([C@@H](C)O)NC(=O)[C@H]2CCCN2C(=O)[C@H](Cc2c[nH]c3ccccc23)NC(=O)[C@H](CCCNC(=N)N)NC(=O)[C@@H](CCCNC(=N)N)NC1=O) [cyclo(-Val-^DArg-Arg-Trp-^DPro-Thr-)]
3. cyclo(W[dF]WR[dP][Pro((4S)F)]) [cyclo(-Trp-^DPhe-Trp-Arg-^DPro-Pro((4S)F)-)]
4. cyclo(I[dR][hArg]W[dP]T) (SMILES CC[C@H](C)[C@@H]1NC(=O)[C@H]([C@@H](C)O)NC(=O)[C@H]2CCCN2C(=O)[C@H](Cc2c[nH]c3ccccc23)NC(=O)[C@H](CCCCNC(=N)N)NC(=O)[C@@H](CCCNC(=N)N)NC1=O) [cyclo(-Ile-^DArg-hArg-Trp-^DPro-Thr-)]
5. cyclo(W[dF]WR[dPro(cis-4-NH2)][(4S)Hyp(Bn)]) (SMILES N=C(N)NCCC[C@@H]1NC(=O)[C@H](Cc2c[nH]c3ccccc23)NC(=O)[C@@H](Cc2ccccc2)NC(=O)[C@H](Cc2c[nH]c3ccccc23)NC(=O)[C@@H]2C[C@H](OCc3ccccc3)CN2C(=O)[C@H]2C[C@@H](N)CN2C1=O) [cyclo(-Trp-^DPhe-Trp-Arg-^DPro((4R)NH2)-(4S)-Hyp(Bn)-)]
6. cyclo(I[dH]RW[dP]T) (SMILES CC[C@H](C)[C@@H]1NC(=O)[C@H]([C@@H](C)O)NC(=O)[C@H]2CCCN2C(=O)[C@H](Cc2c[nH]c3ccccc23)NC(=O)[C@H](CCCNC(=N)N)NC(=O)[C@@H](Cc2c[nH]cn2)NC1=O) [cyclo(-Ile-^DHis-Arg-Trp-^DPro-Thr-)]
7. cyclo([Abu][dR]RW[dP]T) (SMILES CC[C@@H]1NC(=O)[C@H]([C@@H](C)O)NC(=O)[C@H]2CCCN2C(=O)[C@H](Cc2c[nH]c3ccccc23)NC(=O)[C@H](CCCNC(=N)N)NC(=O)[C@@H](CCCNC(=N)N)NC1=O) [cyclo(-Abu-^DArg-Arg-Trp-^DPro-Thr-)]

[reply]
1. 0.1
2. 271
3. 119
4. 11
5. 6.6
6. 546
7. 330
